- TARGET OR SYSTEM: ETS1 (UniProt P14921)
- Sequence: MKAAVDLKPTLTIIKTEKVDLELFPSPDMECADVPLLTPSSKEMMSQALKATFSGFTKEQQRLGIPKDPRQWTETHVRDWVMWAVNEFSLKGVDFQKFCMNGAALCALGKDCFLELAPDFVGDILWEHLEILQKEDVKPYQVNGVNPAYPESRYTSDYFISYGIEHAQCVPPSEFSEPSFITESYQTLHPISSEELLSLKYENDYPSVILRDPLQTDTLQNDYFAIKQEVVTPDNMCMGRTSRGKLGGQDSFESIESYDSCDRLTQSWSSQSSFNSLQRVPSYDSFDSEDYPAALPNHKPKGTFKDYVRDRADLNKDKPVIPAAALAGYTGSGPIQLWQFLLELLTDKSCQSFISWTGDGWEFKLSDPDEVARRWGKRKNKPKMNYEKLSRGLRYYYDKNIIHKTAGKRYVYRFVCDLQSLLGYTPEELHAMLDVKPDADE
- ASSAY EXPLANATION: ETS1 binding intensity (PBM fluorescence) in presence of RUNX1, normalised to ETS1-only experiment (arbitrary fluorescence units); higher = stronger binding
- APPLIED CONDITIONS: ETS1 concentration 1 nM; RUNX1 concentration 25 nM
OBSERVATION TYPE: ETS1 binding intensity
Please state the value as a number alone, without comment.

For orientation, consider the following solved cases.
{"CHAIN": "ATGACTCATTTCCTCACTCTCTACTCCCACAGAACC", "TARGET OR SYSTEM": "ETS1 (UniProt P14921)", "ETS1 binding intensity": 464}
{"CHAIN": "GGGCGGGTCAGCGGAAGTGAGGGCGGTTGAGGCTGG", "TARGET OR SYSTEM": "ETS1 (UniProt P14921)", "ETS1 binding intensity": 4550}
{"CHAIN": "GCGCGGCCAGAGAAAGGATGTGGTATAGCAGAAAGT", "TARGET OR SYSTEM": "ETS1 (UniProt P14921)", "ETS1 binding intensity": 4380}
{"CHAIN": "CCTTCCTTCCTGCTGTGTACGTTGTGGTCACAGCAC", "TARGET OR SYSTEM": "ETS1 (UniProt P14921)", "ETS1 binding intensity": 932}
{"CHAIN": "AGGGCTGAAACAGGATGTGGTGAGTGAGGTAGGGTG", "TARGET OR SYSTEM": "ETS1 (UniProt P14921)", "ETS1 binding intensity": 16600}

INPUT: ETS1 binding intensity lookup needed for GACATATCCTGCATTCTCAGAAAAACCACAGGCTAG , thanks.
OUTPUT: 1050
